# ASSAY_DETAILS: Antiproliferative activity against human FGFR2-amplified SUM52 cells after 5 days by SRB assay
# STUDY_CONDITIONS: SUM52, 120 h
Entries annotated with measured IC50
ENDPOINT_LABEL: IC50 (nM)

COc1cc(OC)c(Cl)c(N2Cc3cnc(NC4CCOCC4)nc3N(C3CCN(C(=O)/C=C/CN(C)C)CC3)C2=O)c1Cl: 0.57
COc1ccccc1Nc1ncc2c(n1)N(C1CCN(C(=O)/C=C/CN(C)C)CC1)C(=O)N(c1c(Cl)c(OC)cc(OC)c1Cl)C2: 3.3
COc1cccc(Nc2ncc3c(n2)N(C2CCN(C(=O)/C=C/CN(C)C)CC2)C(=O)N(c2c(Cl)c(OC)cc(OC)c2Cl)C3)c1: 1
COc1cc(OC)c(Cl)c(N2Cc3cnc(Nc4ccccc4)nc3N(C3CCN(C(=O)/C=C/CN(C)C)CC3)C2=O)c1Cl: 0.65
COc1cc(OC)c(Cl)c(N2Cc3cnc(NC4CCCCC4)nc3N(C3CCN(C(=O)/C=C/CN(C)C)CC3)C2=O)c1Cl: 0.84
CCN(CC)CCCCNc1ncc2cc(-c3cc(OC)cc(OC)c3)c(NC(=O)NC(C)(C)C)nc2n1 [PD-173074]: 12.3
CNc1ncc2c(n1)N(C1CCN(C(=O)/C=C/CN(C)C)CC1)C(=O)N(c1c(Cl)c(OC)cc(OC)c1Cl)C2: 2

* * *

# SYSTEM_TESTED: PDGFRB (platelet-derived growth factor receptor beta) (Homo sapiens, UniProt P09619)
# Sequence (P09619 whole entry, the tested form may be a part): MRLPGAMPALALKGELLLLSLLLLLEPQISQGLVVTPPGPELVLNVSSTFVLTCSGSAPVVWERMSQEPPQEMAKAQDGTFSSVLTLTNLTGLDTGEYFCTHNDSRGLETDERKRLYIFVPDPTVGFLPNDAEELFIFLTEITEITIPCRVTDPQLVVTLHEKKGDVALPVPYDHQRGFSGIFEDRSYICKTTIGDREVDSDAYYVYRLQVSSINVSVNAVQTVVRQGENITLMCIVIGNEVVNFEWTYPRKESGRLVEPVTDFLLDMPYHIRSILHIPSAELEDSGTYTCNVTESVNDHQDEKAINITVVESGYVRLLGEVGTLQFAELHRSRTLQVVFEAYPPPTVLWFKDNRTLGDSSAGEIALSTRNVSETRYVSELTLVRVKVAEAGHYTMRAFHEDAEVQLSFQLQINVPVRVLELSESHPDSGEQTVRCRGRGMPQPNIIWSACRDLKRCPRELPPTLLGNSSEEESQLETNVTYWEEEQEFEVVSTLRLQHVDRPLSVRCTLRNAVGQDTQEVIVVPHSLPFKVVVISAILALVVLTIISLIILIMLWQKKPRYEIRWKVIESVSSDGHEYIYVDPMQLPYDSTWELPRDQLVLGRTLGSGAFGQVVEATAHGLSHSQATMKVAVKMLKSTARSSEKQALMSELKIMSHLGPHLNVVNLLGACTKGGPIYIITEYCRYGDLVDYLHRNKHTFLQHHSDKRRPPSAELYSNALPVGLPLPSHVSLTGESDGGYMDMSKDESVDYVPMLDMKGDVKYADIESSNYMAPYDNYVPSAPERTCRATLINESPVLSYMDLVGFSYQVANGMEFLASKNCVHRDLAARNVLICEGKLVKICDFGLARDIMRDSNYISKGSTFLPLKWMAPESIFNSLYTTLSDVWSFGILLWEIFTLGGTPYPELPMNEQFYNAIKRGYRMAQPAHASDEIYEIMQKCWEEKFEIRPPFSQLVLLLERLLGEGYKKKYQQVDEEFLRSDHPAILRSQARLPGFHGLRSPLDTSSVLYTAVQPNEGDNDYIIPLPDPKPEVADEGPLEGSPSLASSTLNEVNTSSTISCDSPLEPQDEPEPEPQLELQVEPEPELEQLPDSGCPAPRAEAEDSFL
# ASSAY_DETAILS: Inhibition of wild-type human partial length PDGFRB (V582 to Y1009 residues) expressed in Escherichia coli BL21 assessed as residual activity at 1000 nM after 30 mins by Kinomescan method relative to control
# STUDY_CONDITIONS: read-out: Activity
ENDPOINT_LABEL: activity at 0.5 h, 1 µM (%)

COc1cc(OC)c(Cl)c(N2Cc3cnc(Nc4ccc(F)cc4)nc3N(C3CCN(C(=O)/C=C/CN(C)C)CC3)C2=O)c1Cl: 1.5

* * *

# SYSTEM_TESTED: Fibroblast growth factor receptor 2 (Homo sapiens)
# Sequence (P21802 whole entry, the tested form may be a part): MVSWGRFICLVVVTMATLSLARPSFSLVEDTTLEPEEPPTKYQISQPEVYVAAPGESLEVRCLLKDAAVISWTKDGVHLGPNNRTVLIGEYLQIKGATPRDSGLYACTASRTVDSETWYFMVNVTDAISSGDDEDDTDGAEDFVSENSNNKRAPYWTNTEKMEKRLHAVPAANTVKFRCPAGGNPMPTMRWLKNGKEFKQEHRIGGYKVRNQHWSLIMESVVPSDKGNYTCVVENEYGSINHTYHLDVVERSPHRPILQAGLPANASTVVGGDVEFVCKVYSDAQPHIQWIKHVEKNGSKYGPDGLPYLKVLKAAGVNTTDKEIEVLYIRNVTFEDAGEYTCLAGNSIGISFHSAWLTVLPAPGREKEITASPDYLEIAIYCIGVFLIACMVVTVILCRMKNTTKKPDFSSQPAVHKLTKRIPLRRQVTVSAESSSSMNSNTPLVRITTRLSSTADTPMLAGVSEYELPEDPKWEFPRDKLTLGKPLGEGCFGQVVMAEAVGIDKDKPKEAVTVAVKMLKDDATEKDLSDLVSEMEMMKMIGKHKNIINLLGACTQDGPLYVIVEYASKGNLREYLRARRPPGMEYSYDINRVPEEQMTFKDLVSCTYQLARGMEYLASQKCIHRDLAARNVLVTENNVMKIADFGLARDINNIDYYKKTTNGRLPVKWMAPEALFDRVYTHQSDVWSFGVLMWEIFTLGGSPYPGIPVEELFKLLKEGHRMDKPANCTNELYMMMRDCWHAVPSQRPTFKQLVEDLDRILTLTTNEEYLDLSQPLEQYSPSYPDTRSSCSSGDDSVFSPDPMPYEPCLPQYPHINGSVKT
# ASSAY_DETAILS: Inhibition of human recombinant cytoplasmic His-tagged FGFR2 (403 to 822 residues) expressed in baculovirus using Tyr-4 peptide after 1 hr by FRET-based Z'-Lyte assay
ENDPOINT_LABEL: IC50

COc1cc(OC)c(Cl)c(N2Cc3cnc(Nc4ccc(F)cc4)nc3N(C3CCN(C(=O)/C=C/CN(C)C)CC3)C2=O)c1Cl: 1.45 nM

* * *

# ASSAY_DETAILS: Antiproliferative activity against human FGFR2-amplified SUM52 cells after 5 days by SRB assay
# STUDY_CONDITIONS: SUM52, 120 h
pIC50: −log10 of the molar value.
ENDPOINT_LABEL: pIC50

COc1cc(OC)c(Cl)c(N2Cc3cnc(N(C)C)nc3N(C3CCN(C(=O)/C=C/CN(C)C)CC3)C2=O)c1Cl: 6.65
COc1cc(OC)c(Cl)c(N2Cc3cnc(Nc4cccc(F)c4)nc3N(C3CCN(C(=O)/C=C/CN(C)C)CC3)C2=O)c1Cl: 8.96
COc1cc(OC)c(Cl)c(N2Cc3cnc(NC(C)C)nc3N(C3CCN(C(=O)/C=C/CN(C)C)CC3)C2=O)c1Cl: 9.19
COc1ccc(Nc2ncc3c(n2)N(C2CCN(C(=O)/C=C/CN(C)C)CC2)C(=O)N(c2c(Cl)c(OC)cc(OC)c2Cl)C3)cc1: 9.10
COc1cc(OC)c(Cl)c(N2Cc3cnc(Nc4cccc(C)c4)nc3N(C3CCN(C(=O)/C=C/CN(C)C)CC3)C2=O)c1Cl: 8.96
COc1cc(OC)c(Cl)c(N2Cc3cnc(NC4CCOC4)nc3N(C3CCN(C(=O)/C=C/CN(C)C)CC3)C2=O)c1Cl (stereo not drawn): 8.40
COc1cc(OC)c(Cl)c(N2Cc3cnc(Nc4ccc(F)cc4)nc3N(C3CCN(C(=O)/C=C/CN(C)C)CC3)C2=O)c1Cl: 9.11
C=CC(=O)Nc1cccc(CN2C(=O)N(c3c(Cl)c(OC)cc(OC)c3Cl)Cc3cnc(NCCCCN(CC)CC)nc32)c1: 8.54
